test description: Cytotoxicity against human HepG2 cells after 96 hrs by CCK8 assay
Type: cell-based
observable: CC50 at 96 h

Some solved entries appear below for comparison.
>>> result("OC[C@H]1O[C@@H](n2c3ccc(Cl)cc3c3c(-c4cc5ccccc5o4)ncnc32)[C@H](O)[C@@H]1O")
"> 50 µM"
>>> result("OC[C@H]1O[C@@H](n2c3ccc(Cl)cc3c3c(-c4ccccc4)ncnc32)[C@H](O)[C@@H]1O")
"> 50 µM"
>>> result("OC[C@H]1O[C@@H](n2c3ccccc3c3c(-c4ccco4)ncnc32)[C@H](O)[C@@H]1O")
"> 50 µM"

Consider the record given below.
Q: Query: CC50 at 96 h; subject: OC[C@H]1O[C@@H](n2c3ccc(Cl)cc3c3c(-c4ccco4)ncnc32)[C@H](O)[C@@H]1O
Result: 0.175 µM

###

System: HeLa
test description: Cytotoxic activity against human HeLa cells
Format: cell-based
observable: Activity

>>> result("OC[C@H]1O[C@@H](n2c3ccc(Cl)cc3c3c(-c4ccsc4)ncnc32)[C@H](O)[C@@H]1O")
"Non-toxic"
>>> result("OC[C@H]1O[C@@H](n2c3ccc(-c4ccoc4)cc3c3c(-c4ccco4)ncnc32)[C@H](O)[C@@H]1O")
"Non-toxic"
>>> result("OC[C@H]1O[C@@H](n2c3ccc(Cl)cc3c3c(-c4cccs4)ncnc32)[C@H](O)[C@@H]1O")
"Non-toxic"
>>> result("OC[C@H]1O[C@@H](n2c3ccccc3c3c(-c4ccco4)ncnc32)[C@H](O)[C@@H]1O")
"Non-toxic"
>>> result("OC[C@H]1O[C@@H](n2c3ccc(-c4ccco4)cc3c3c(-c4ccco4)ncnc32)[C@H](O)[C@@H]1O")
"Non-toxic"

Q: Query: Activity; subject: OC[C@H]1O[C@@H](n2c3ccc(Cl)cc3c3c(-c4ccccc4)ncnc32)[C@H](O)[C@@H]1O
Result: Non-toxic

Q: Query: Activity; subject: OC[C@H]1O[C@@H](n2c3ccc(Cl)cc3c3c(-c4ccoc4)ncnc32)[C@H](O)[C@@H]1O
Result: Non-toxic

Q: Query: Activity; subject: OC[C@H]1O[C@@H](n2c3ccc(Cl)cc3c3c(-c4ccco4)ncnc32)[C@H](O)[C@@H]1O
Result: Non-toxic

Q: Query: Activity; subject: OC[C@H]1O[C@@H](n2c3ccc(-c4ccccc4)cc3c3c(-c4ccco4)ncnc32)[C@H](O)[C@@H]1O
Result: Non-toxic

Q: Query: Activity; subject: OC[C@H]1O[C@@H](n2c3ccc(Cl)cc3c3c(-c4cc5ccccc5o4)ncnc32)[C@H](O)[C@@H]1O
Result: Non-toxic

###

Measured CC50 at 96 h accompanies every entry in the list below.
test description: Cytotoxicity against human HepG2 cells after 96 hrs by CCK8 assay
Assay type: cell-based
// units = µM; emit number, no label

Some solved entries appear below for comparison.
>>> quantitative_result("OC[C@H]1O[C@@H](n2c3ccc(Cl)cc3c3c(-c4cccs4)ncnc32)[C@H](O)[C@@H]1O")
19.9
>>> quantitative_result("OC[C@H]1O[C@@H](n2c3ccc(-c4ccccc4)cc3c3c(-c4ccco4)ncnc32)[C@H](O)[C@@H]1O")
20.7
>>> quantitative_result("OC[C@H]1O[C@@H](n2c3ccc(-c4ccco4)cc3c3c(-c4ccco4)ncnc32)[C@H](O)[C@@H]1O")
7.44

Consider the record given below.
Q: Query: CC50 at 96 h; subject: OC[C@H]1O[C@@H](n2c3ccc(-c4ccoc4)cc3c3c(-c4ccco4)ncnc32)[C@H](O)[C@@H]1O
Result: 33.1
